Origin of values: PubChem BioAssay AID2060605

- Test system: 947758-054-R-J2-PDC spheroid growth, percent test/control
- Assay text: Anticancer human tumor 947758-054-R-J2-PDC patient-derived colon adenocarcinoma cell line growth inhibition [CLK]
- Condition: second compound 10 µM; first compound 1 µM; active compounds read low; spheroids with HUVEC and MSC
Measure name: viability, T/C (%)
One number for each entry, in %.

O=c1[nH]cc(F)c(=O)[nH]1 + CN1CCN(c2cc(C(=O)Nc3cc4cc(-c5cnn(C)c5)ccc4cn3)ccn2)CC1 | 0.21

Provide viability, T/C values for the following items, in order.
1. CC1COCCN1c1cc(C2(S(C)(=N)=O)CC2)nc(-c2ccnc3[nH]ccc23)n1 (stereo unspecified) + CN1CCN(c2cc(C(=O)Nc3cc4cc(-c5cnn(C)c5)ccc4cn3)ccn2)CC1
2. C=C(F)C(=O)N1CCN(c2nc(OCC3CCCN3C)nc3c2CCN(c2cccc4cccc(Cl)c24)C3)CC1CC#N (stereo unspecified) + CN1CCN(c2cc(C(=O)Nc3cc4cc(-c5cnn(C)c5)ccc4cn3)ccn2)CC1

A.
[1.13, 0.31]

I would be grateful if you could provide viability, T/C for each of the following entries.
1. C=CC(=O)N1CCN(c2nc(=O)n(-c3c(C)ccnc3C(C)C)c3nc(-c4c(O)cccc4F)c(F)cc23)C(C)C1 (stereo unspecified) + CNC(=O)c1ccc(Nc2nc(OC3CCCC3)c3c(-c4ccc5nc(C)oc5c4)c[nH]c3n2)c(OC)c1
2. CC(Nc1ccc2c(c1)OCCn1cc(N3C(=O)OCC3C(F)F)nc1-2)C(N)=O (stereo unspecified) + CNC(=O)c1ccc(Nc2nc(OC3CCCC3)c3c(-c4ccc5nc(C)oc5c4)c[nH]c3n2)c(OC)c1
3. C=CC(=O)N1CCN(c2nc(=O)n(-c3c(C)ccnc3C(C)C)c3nc(-c4c(O)cccc4F)c(F)cc23)C(C)C1 (stereo unspecified) + CN1CCN(c2cc(C(=O)Nc3cc4cc(-c5cnn(C)c5)ccc4cn3)ccn2)CC1

A.
25.7
6.53
0.39

----------
Please go through the items and note down their viability, T/C.
- System: 947758-054-R-J2-PDC spheroid growth, percent test/control
- Assay text: Anticancer human tumor 947758-054-R-J2-PDC cell line growth inhibition [CLK];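 further: spheroids exposed to compounds for one week before readout; 100% = DMSO vehicle control wells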
- Condition: second compound 0.316 µM; first compound 0.03 µM; active compounds read low; spheroids with HUVEC and MSC
One number for each entry, in %.

A selection of reference data follows.
CC(C)CC(NC(=O)C(Cc1ccccc1)NC(=O)c1cnccn1)B(O)O (stereo not drawn) + CNC(=O)c1ccc(Nc2nc(OC3CCCC3)c3c(-c4ccc5nc(C)oc5c4)c[nH]c3n2)c(OC)c1 | 0.22
NC(=O)C(=Cn1cnc(-c2cc(C(F)(F)F)cc(C(F)(F)F)c2)n1)c1cncnc1 + CNC(=O)c1ccc(Nc2nc(OC3CCCC3)c3c(-c4ccc5nc(C)oc5c4)c[nH]c3n2)c(OC)c1 | 32.4

Q. Give me measured viability, T/C, please, for this compound: CC(C)CC(NC(=O)C(Cc1ccccc1)NC(=O)c1cnccn1)B(O)O (stereo not drawn) + CN1CCN(c2cc(C(=O)Nc3cc4cc(-c5cnn(C)c5)ccc4cn3)ccn2)CC1
A. 0.22

----------
- Test system: 947758-054-R-J2-PDC spheroid growth, percent test/control
- Assay text: Anticancer human tumor 947758-054-R-J2-PDC cell line growth inhibition [CLK]; active means viability on the fitted dose curve at most 10% of control; inactive means the rest;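 further: spheroids exposed to compounds for one week before readout; 100% = DMSO vehicle control wells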
- Condition: second compound 1 µM; first compound 1 µM; spheroids with HUVEC and MSC
Respond only with the outcome that fits, drawn from active, inactive

COc1ccc([C@@H](O)c2cc(-c3ncnc4cc(N5CCOCC5)ccc34)c(F)cc2Cl)nn1 + CNC(=O)c1ccc(Nc2nc(OC3CCCC3)c3c(-c4ccc5nc(C)oc5c4)c[nH]c3n2)c(OC)c1 | inactive
CCc1c2c(nc3ccc(O)cc13)-c1cc3c(c(=O)n1C2)COC(=O)[C@]3(O)CC + CN1CCN(c2cc(C(=O)Nc3cc4cc(-c5cnn(C)c5)ccc4cn3)ccn2)CC1 | active
Nc1ccccc1NC(=O)c1ccc(CNC(=O)OCc2cccnc2)cc1 + CN1CCN(c2cc(C(=O)Nc3cc4cc(-c5cnn(C)c5)ccc4cn3)ccn2)CC1 | active
CC(CO)NC(=O)c1cc(-c2ccc(Cl)cc2)nn(-c2cnn(C)c2)c1=O (stereo unspecified) + CN1CCN(c2cc(C(=O)Nc3cc4cc(-c5cnn(C)c5)ccc4cn3)ccn2)CC1 | active

Q. Which outcome did this test record for the molecule CCN1CCN(Cc2ccc(Nc3ncc(F)c(-c4cc(F)c5nc(C)n(C(C)C)c5c4)n3)nc2)CC1 + CN1CCN(c2cc(C(=O)Nc3cc4cc(-c5cnn(C)c5)ccc4cn3)ccn2)CC1 ?
A. active

Q. Answer briefly: the call reported for COc1c(OCCCN2CCOCC2)ccc2c3n(c(=NC(=O)c4cnc(N)nc4)nc12)CCN3 + CN1CCN(c2cc(C(=O)Nc3cc4cc(-c5cnn(C)c5)ccc4cn3)ccn2)CC1 in this assay.
A. active
